Hey, just so you know, these numbers are from patent US20250064750A1.

Please respond with reported PDI for every item in the list.
Assay: Size and polydispersity index of liposomal nanoparticles by dynamic light scattering
Assay type: physicochemical
Conditions: mRNA-encapsulating liposomal nanoparticles; lipid:DSPC:cholesterol:DMG-PEG 50:10:38.5:1.5
Would you mind answering with just the numeric figure?

Input line: # input compound: CCCCCCCCCCCOC(=O)CCCCCN(CCO)CCCCCOCC(=O)OC(CCCCCCCC)CCCCCCCC ; wanted: its PDI
Output line: 0.08

Input line: Do the same for CCCCCCCCCCCOC(=O)CCCCCN(CCO)CCCCCOC(C)(C)C(=O)OC(CCCCCCCC)CCCCCCCC please
Output line: 0.07

Input line: What do you have for CCCCCCCCCCCOC(=O)CCCCCN(CCO)CCCCCO[C@@H](C)C(=O)OC(CCCCCCCC)CCCCCCCC ?
Output line: 0.09

Input line: What would you report for CCCCCCCCCCCOC(=O)CCCCCN(CCO)CCOCCCCC(=O)OC(CCCCCCCC)CCCCCCCC ?
Output line: 0.07

====

Experiment: Tissue targeting: cationic lipid concentrations in liver and spleen after tail vein injection, LC-MS
Assay type: in vivo, BALB/c mice
Details: female, BALB/c, mouse, intravenous, cationic lipid in spleen, 0.5 mg/kg, HGF mRNA lipid nanoparticles, read-out: AUC48 h (h*μg/mL) Spleen
Procedure: Based on pharmacokinetic parameters, the total cationic lipid concentrations in the tissues 48 hours after administration were calculated to evaluate the distribution of lipid nanoparticles in the liver and spleen.
VALUE_TYPE: AUC(0-t)
# answer = value followed by unit

Input line: Endpoint output: AUC(0-t) of CCCCCCCCCCCOC(=O)CCCCCN(CCO)CCCCCOCC(=O)OC(CCCCCCCC)CCCCCCCC [Compound 1] . Value?
Output line: 493 µg·h/mL

====

Test: Tissue targeting: cationic lipid concentrations in liver and spleen after tail vein injection, LC-MS
Assay type: in vivo, BALB/c mice
Settings: female, BALB/c, mouse, intravenous, cationic lipid in liver, 0.5 mg/kg, HGF mRNA lipid nanoparticles, read-out: AUC48 h (h*μg/mL) Liver
Procedure: Based on pharmacokinetic parameters, the total cationic lipid concentrations in the tissues 48 hours after administration were calculated to evaluate the distribution of lipid nanoparticles in the liver and spleen.
VALUE_TYPE: AUC(0-t)
Answer with the figure and its unit, nothing else.

Input line: Return reported AUC(0-t); argument: CCCCCCCCCCCOC(=O)CCCCCN(CCO)CCCCCOCC(=O)OC(CCCCCCCC)CCCCCCCC
Output line: 540 µg·h/mL

====

Assay: in vivo
Conditions: female, BALB/c, mouse, 0.5 mg/kg
VALUE_TYPE: concentration at 1 h (ng/mL)
Reply with just the number (in ng/mL).

Input line: Entry CCCCCCCCCCCOC(=O)CCCCCN(CCO)CCCCCOCC(=O)OC(CCCCCCCC)CCCCCCCC : reported concentration at 1 h = ?
Output line: 1160
